The reported numbers originate from the supplement of paper PMC3937590.

System: MDAMB175VII
Assay: -log10 GI50 (growth inhibition 50%) (-log10(M)); higher = more potent growth inhibition
measurement_name: -log10 GI50

COc1ccc(-c2cc3c(C)nc(N)nc3n([C@H]3CC[C@H](OCCO)CC3)c2=O)cn1 = 7.23
NS(=O)(=O)OC[C@@H]1C[C@@H](n2ccc3c(N[C@H]4CCc5ccccc54)ncnc32)C[C@@H]1O = 6.64

a. CC(C)C[C@@H](C=O)NC(=O)[C@H](CC(C)C)NC(=O)[C@H](CC(C)C)NC(=O)OCc1ccccc1
b. NS(=O)(=O)c1ccc(Nc2nc(OCC3CCCCC3)c3[nH]cnc3n2)cc1
Query: Lab note: check whether a or b shows the higher recorded -log10 GI50. Indicate which entry you chose by stating its label.
Result: a
